procedure_text: Clearance in rat at 1 mg/kg, po and 1 mg/kg, iv
Format: ADME, organism-based
assay_context: in vivo
readout_label: clearance (mL/min/kg)

compound_structure_string | readout_label | experimental_value
O=C(NC[C@]1(CC2CC2)CC[C@H](S(=O)(=O)CC2CC2)CC1)c1ccc(Cl)cc1Cl | clearance | 36

###

procedure_text: Half life in rhesus monkey at 1 mg/kg, po and 1 mg/kg, iv
Format: ADME, organism-based, Macaca mulatta
assay_context: in vivo

compound_structure_string | half-life
O=C(NC[C@]1(CC2CC2)CC[C@H](S(=O)(=O)CC2CC2)CC1)c1ccc(Cl)cc1Cl | 1.5 h

###

system_under_test: UniProt P48067
Sequence (P48067 whole entry): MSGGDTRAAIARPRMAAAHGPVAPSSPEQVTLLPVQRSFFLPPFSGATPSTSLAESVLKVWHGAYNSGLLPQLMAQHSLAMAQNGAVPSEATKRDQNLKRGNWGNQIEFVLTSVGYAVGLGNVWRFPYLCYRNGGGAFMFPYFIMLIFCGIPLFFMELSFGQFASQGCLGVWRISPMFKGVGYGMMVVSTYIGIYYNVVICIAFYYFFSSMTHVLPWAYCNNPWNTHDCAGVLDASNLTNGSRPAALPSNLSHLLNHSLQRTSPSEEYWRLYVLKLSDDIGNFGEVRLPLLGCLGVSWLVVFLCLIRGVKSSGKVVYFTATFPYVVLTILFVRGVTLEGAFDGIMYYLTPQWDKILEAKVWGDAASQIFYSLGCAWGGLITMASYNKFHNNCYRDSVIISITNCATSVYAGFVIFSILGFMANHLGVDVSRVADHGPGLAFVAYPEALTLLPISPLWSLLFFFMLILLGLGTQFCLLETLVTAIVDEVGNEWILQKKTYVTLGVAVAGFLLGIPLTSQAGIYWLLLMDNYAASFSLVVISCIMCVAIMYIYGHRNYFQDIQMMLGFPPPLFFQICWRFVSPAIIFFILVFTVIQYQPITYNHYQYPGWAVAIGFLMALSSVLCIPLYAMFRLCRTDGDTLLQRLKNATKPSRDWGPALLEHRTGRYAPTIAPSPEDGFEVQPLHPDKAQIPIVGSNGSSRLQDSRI
pIC50: −log10 of the molar value.

compound_structure_string | pIC50
O=C(NC[C@]1(CC2CC2)CC[C@H](S(=O)(=O)CC2CCC2)CC1)c1ccc(Cl)cc1Cl | 6.20
Cc1nnc(S(=O)(=O)[C@H]2CC[C@@](CNC(=O)c3ccc(Cl)cc3Cl)(CC3CC3)CC2)s1 | 5.48
Cc1ccc(S(=O)(=O)[C@H]2CC[C@@](CNC(=O)c3ccc(Cl)cc3Cl)(CC3CC3)CC2)nn1 | 7.54
CCS(=O)(=O)[C@H]1CC[C@](CNC(=O)c2ccc(Cl)cc2Cl)(CC2CC2)CC1 | 6.88
CCCS(=O)(=O)[C@H]1CC[C@@](CNC(=O)c2ccc(Cl)cc2Cl)(CC2CC2)CC1 | 5.79
O=C(NC[C@]1(CC2CC2)CC[C@H](S(=O)(=O)c2c[nH]nn2)CC1)c1ccc(Cl)cc1Cl | 5.52
CS(=O)(=O)[C@H]1CC[C@](CNC(=O)c2ccc(Cl)cc2Cl)(CC2CC2)CC1 | 5.48
CCS(=O)(=O)[C@H]1CC[C@@](CNC(=O)c2ccc(Cl)cc2Cl)(CC2CC2)CC1 | 5.88

###

procedure_text: Oral bioavailability in dog at 1 mg/kg
Format: ADME, organism-based, Canis lupus familiaris
assay_context: in vivo

compound_structure_string | bioavailability (%)
O=C(NC[C@]1(CC2CC2)CC[C@H](S(=O)(=O)CC2CC2)CC1)c1ccc(Cl)cc1Cl | 48

###

procedure_text: Cmax in dog at 1 mg/kg, po and 1 mg/kg, iv
Format: ADME, organism-based, Canis lupus familiaris
assay_context: in vivo
readout_label: Cmax (nM)

compound_structure_string | readout_units | experimental_value
O=C(NC[C@]1(CC2CC2)CC[C@H](S(=O)(=O)CC2CC2)CC1)c1ccc(Cl)cc1Cl | nM | 1390

###

procedure_text: Volume of distribution at steady state in dog at 1 mg/kg, po and 1 mg/kg, iv
Assay type: ADME, organism-based, Canis lupus familiaris
assay_context: in vivo, read-out: Vdss

compound_structure_string | Vd / L/kg
O=C(NC[C@]1(CC2CC2)CC[C@H](S(=O)(=O)CC2CC2)CC1)c1ccc(Cl)cc1Cl | 3.1

###

procedure_text: Tmax in rhesus monkey at 1 mg/kg, po and 1 mg/kg, iv
Type: ADME, organism-based, Macaca mulatta
assay_context: in vivo
readout_label: Tmax (h)

compound_structure_string | readout_units | experimental_value
O=C(NC[C@]1(CC2CC2)CC[C@H](S(=O)(=O)CC2CC2)CC1)c1ccc(Cl)cc1Cl | h | 2.7

###

procedure_text: Half life in dog at 1 mg/kg, po and 1 mg/kg, iv
Type: ADME, organism-based, Canis lupus familiaris
assay_context: in vivo
readout_label: half-life (h)

compound_structure_string | experimental_value
O=C(NC[C@]1(CC2CC2)CC[C@H](S(=O)(=O)CC2CC2)CC1)c1ccc(Cl)cc1Cl | 10

###

procedure_text: Tmax in rat at 1 mg/kg, po and 1 mg/kg, iv
Type: ADME, organism-based
assay_context: in vivo

compound_structure_string | readout_units | Tmax
O=C(NC[C@]1(CC2CC2)CC[C@H](S(=O)(=O)CC2CC2)CC1)c1ccc(Cl)cc1Cl | min | 48

###

system_under_test: Cytochrome P450 3A4 (Homo sapiens, UniProt P08684)
Sequence (P08684 whole entry): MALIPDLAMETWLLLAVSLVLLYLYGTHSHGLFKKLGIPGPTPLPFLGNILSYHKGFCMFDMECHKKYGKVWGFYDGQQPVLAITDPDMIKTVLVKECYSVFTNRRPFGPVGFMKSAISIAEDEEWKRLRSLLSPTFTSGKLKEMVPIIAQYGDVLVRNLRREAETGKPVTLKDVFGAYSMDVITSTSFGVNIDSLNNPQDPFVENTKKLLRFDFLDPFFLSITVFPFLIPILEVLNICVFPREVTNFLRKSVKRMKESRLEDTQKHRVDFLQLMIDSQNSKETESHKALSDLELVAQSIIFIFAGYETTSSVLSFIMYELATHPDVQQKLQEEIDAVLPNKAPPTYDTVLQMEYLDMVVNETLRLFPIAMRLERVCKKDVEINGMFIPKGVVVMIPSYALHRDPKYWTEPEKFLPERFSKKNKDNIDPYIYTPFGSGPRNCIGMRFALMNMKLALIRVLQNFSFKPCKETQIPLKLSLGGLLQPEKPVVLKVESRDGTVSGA

compound_structure_string | IC50
Cn1cc(S(=O)(=O)[C@H]2CC[C@](CNC(=O)c3ccc(Cl)cc3Cl)(CC3CC3)CC2)nn1 | > 10 µM

###

procedure_text: Volume of distribution at steady state in rat at 1 mg/kg, po and 1 mg/kg, iv
Type: ADME, organism-based
assay_context: in vivo, read-out: Vdss

compound_structure_string | Vd
O=C(NC[C@]1(CC2CC2)CC[C@H](S(=O)(=O)CC2CC2)CC1)c1ccc(Cl)cc1Cl | 4.1 L/kg

###

procedure_text: Cmax in rat at 1 mg/kg, po and 1 mg/kg, iv
Assay type: ADME, organism-based
assay_context: in vivo

compound_structure_string | Cmax (nM)
O=C(NC[C@]1(CC2CC2)CC[C@H](S(=O)(=O)CC2CC2)CC1)c1ccc(Cl)cc1Cl | 140

###

procedure_text: Volume of distribution at steady state in rhesus monkey at 1 mg/kg, po and 1 mg/kg, iv
Type: ADME, organism-based, Macaca mulatta
assay_context: in vivo, read-out: Vdss

compound_structure_string | readout_units | Vd
O=C(NC[C@]1(CC2CC2)CC[C@H](S(=O)(=O)CC2CC2)CC1)c1ccc(Cl)cc1Cl | L/kg | 2.3

###

procedure_text: Half life in rat at 1 mg/kg, po and 1 mg/kg, iv
Assay type: ADME, organism-based
assay_context: in vivo

compound_structure_string | half-life
O=C(NC[C@]1(CC2CC2)CC[C@H](S(=O)(=O)CC2CC2)CC1)c1ccc(Cl)cc1Cl | 2.4 h

###

procedure_text: Clearance in dog at 1 mg/kg, po and 1 mg/kg, iv
Format: ADME, organism-based, Canis lupus familiaris
assay_context: in vivo
readout_label: clearance (mL/min/kg)

compound_structure_string | readout_label | readout_units | experimental_value
O=C(NC[C@]1(CC2CC2)CC[C@H](S(=O)(=O)CC2CC2)CC1)c1ccc(Cl)cc1Cl | clearance | mL/min/kg | 4.9

###

# Lookup of reported metabolised at 0.25 h, 1 µM keyed by entry
procedure_text: Metabolic stability in human liver microsomes assessed as compound turnover at 1 uM after 15 mins
Format: ADME, Microsome
assay_context: read-out: Drug metabolism

compound_structure_string | metabolised at 0.25 h, 1 µM (%)
O=C(NC[C@]1(CC2CC2)CC[C@H](S(=O)(=O)CC2CC2)CC1)c1ccc(Cl)cc1Cl | 35
CCCS(=O)(=O)[C@H]1CC[C@](CNC(=O)c2ccc(Cl)cc2Cl)(CC2CC2)CC1 | 55
Cc1ccc(S(=O)(=O)[C@H]2CC[C@@](CNC(=O)c3ccc(Cl)cc3Cl)(CC3CC3)CC2)nn1 | 35
Cc1cc(S(=O)(=O)[C@H]2CC[C@@](CNC(=O)c3ccc(Cl)cc3Cl)(CC3CC3)CC2)no1 | 35
Cc1cc(S(=O)(=O)[C@H]2CC[C@](CNC(=O)c3ccc(Cl)cc3Cl)(CC3CC3)CC2)no1 | 40

###

procedure_text: Oral bioavailability in rat at 1 mg/kg
Assay type: ADME, organism-based
assay_context: in vivo

compound_structure_string | bioavailability / %
O=C(NC[C@]1(CC2CC2)CC[C@H](S(=O)(=O)CC2CC2)CC1)c1ccc(Cl)cc1Cl | 65

###

procedure_text: Clearance in rhesus monkey at 1 mg/kg, po and 1 mg/kg, iv
Format: ADME, organism-based, Macaca mulatta
assay_context: in vivo
readout_label: clearance (mL/min/kg)

compound_structure_string | experimental_value
O=C(NC[C@]1(CC2CC2)CC[C@H](S(=O)(=O)CC2CC2)CC1)c1ccc(Cl)cc1Cl | 24

###

# Lookup of reported metabolised at 0.25 h, 1 µM keyed by entry
procedure_text: Metabolic stability in rat liver microsomes assessed as compound turnover at 1 uM after 15 mins
Assay type: ADME, Microsome
assay_context: read-out: Drug metabolism
readout_label: metabolised at 0.25 h, 1 µM (%)

compound_structure_string | readout_label | experimental_value
O=C(NC[C@]1(CC2CC2)CC[C@H](S(=O)(=O)CC2CC2)CC1)c1ccc(Cl)cc1Cl | metabolised at 0.25 h, 1 µM | 40
Cc1cc(S(=O)(=O)[C@H]2CC[C@@](CNC(=O)c3ccc(Cl)cc3Cl)(CC3CC3)CC2)no1 | metabolised at 0.25 h, 1 µM | 51
Cc1cc(S(=O)(=O)[C@H]2CC[C@](CNC(=O)c3ccc(Cl)cc3Cl)(CC3CC3)CC2)no1 | metabolised at 0.25 h, 1 µM | 41
Cc1ccc(S(=O)(=O)[C@H]2CC[C@@](CNC(=O)c3ccc(Cl)cc3Cl)(CC3CC3)CC2)nn1 | metabolised at 0.25 h, 1 µM | 40
CCCS(=O)(=O)[C@H]1CC[C@](CNC(=O)c2ccc(Cl)cc2Cl)(CC2CC2)CC1 | metabolised at 0.25 h, 1 µM | 53

###

procedure_text: Oral bioavailability in rhesus monkey at 1 mg/kg
Type: ADME, organism-based, Macaca mulatta
assay_context: in vivo

compound_structure_string | bioavailability (%)
O=C(NC[C@]1(CC2CC2)CC[C@H](S(=O)(=O)CC2CC2)CC1)c1ccc(Cl)cc1Cl | 2
